Assay: inhibitors of MITF-dependent TRPM1 promoter reporter, primary screen, cell-based, SK-MEL-5, single point, luciferase (AID 488899)
Settings: SK-MEL-5 TRPM1 promoter luciferase, 24 h; at 12.5 µM
The whole screen tested about 330,000 compounds, of which about 2,800 (0.85%) were called active.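 How the source made its calls: active means mean inhibition across replicates of 60% or more, whatever share of single replicates reaches that level; inconclusive means some that reach 60%, reason not given; inactive means mean inhibition across replicates below 60%.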 Many of the other results were omitted from the sample, so actives are more common in it than they were.
Your reply should match one of these outcome classes. 1 for active, 0 for inactive

Please review the following examples before continuing.
>>> class("Cc1cc2ccccn2c1C(C[N+](=O)[O-])c1c(F)cccc1Cl (configuration not stated)")
0
>>> class("CC1C(=O)OC2CCN3CC=C(COC(=O)C(C)(O)C1(C)O)C23 (configuration not stated)")
0
>>> class("CC1=CC(=Cc2sc3ccccc3[n+]2C)C=C(C)O1")
1

Exercise: Check the results log: what was the call for Cc1nn(Cc2ccccc2Cl)c(Cl)c1C(=O)OC(C(=O)NC(N)=O)C(C)C (configuration not stated) ?
Solution: 0

Exercise: Record lookup: outcome of this test for CCCCCCCCCCCCn1ccc(=N)cc1 ?
Solution: 1

Exercise: # fetch the recorded call for c1ccc(CCN2CCC3(CC2)OCCO3)cc1 here
Solution: 0

Exercise: Could you kindly confirm the outcome this assay logged for CC(=O)OC1C2(CC3N4C(=O)C5(CO)SSC4(CC31O)C(=O)N5C)OC(C)C(C)(C)C2=O (configuration not stated) ?
Solution: 1
